Measured values drawn from ChEMBL document CHEMBL5385940 for this set.

Experiment: Cytotoxicity against mouse 3T3-L1 cells assessed as cell viability at 5 uM incubated for 48 hrs by CCK-8 assay relative to control
Type: toxicity, cell-based
Conditions: read-out: Activity
Experimental endpoint: viability at 48 h, 5 µM

Item smiles: C=C(c1ccc(O)c(Oc2cc3c(cc2OC)CCN(C)[C@@H]3Cc2ccc(OC)cc2)c1)[C@H]1c2cc(OC)c(OC)cc2CCN1C
viability at 48 h, 5 µM: > 80%
--
Item smiles: C=C(c1ccc(OC)cc1)[C@@H]1c2cc(Oc3cc(C[C@H]4c5cc(OC)c(OC)cc5CCN4C)ccc3O)c(OC)cc2CCN1C
viability at 48 h, 5 µM: > 80%
--
Item smiles: COc1ccc(C[C@@H]2c3cc(Oc4cc(C[C@H]5c6cc(OC)c(OC)cc6CCN5C)ccc4O)c(OC)cc3CCN2C)cc1
viability at 48 h, 5 µM: > 80%
--
Item smiles: C=C(c1ccc(O)c(Oc2cc3c(cc2OC)CCN(C)[C@@H]3Cc2ccc(OC)cc2)c1)[C@H]1c2cc(O)c(OC)cc2CCN1C
viability at 48 h, 5 µM: > 80%
--
Item smiles: COc1cc2c(cc1O)[C@@H](Cc1ccc(O)c(Oc3cc4c(cc3OC)CCN(C)[C@@H]4Cc3ccc(O)cc3)c1)N(C)CC2
viability at 48 h, 5 µM: > 80%

Please fill in: viability at 48 h, 5 µM reported for COc1ccc(C[C@@H]2c3cc(Oc4cc(/C=C5\CN(C)CCc6cc(OC)c(OC)cc65)ccc4O)c(OC)cc3CCN2C)cc1 = > 80%
